B1: LINE1-full (parent)
chain: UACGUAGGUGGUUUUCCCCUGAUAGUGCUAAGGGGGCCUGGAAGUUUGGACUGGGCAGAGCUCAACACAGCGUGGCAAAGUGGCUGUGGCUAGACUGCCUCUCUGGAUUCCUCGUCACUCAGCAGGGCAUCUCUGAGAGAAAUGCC

Variants of: B1
Experimental details: self-cleavage, relative activity (ratio to wild type); higher = more cleavage; in vitro, sequencing; the parent is a self-cleaving ribozyme
Label rule met when self-cleavage >= 0.7; otherwise rule not met.

Example entries and their recorded answers appear below.
G7U U20C; rule met
G106A A141G; rule met
G88A A92G; rule not met
A59G U96G; rule not met
G36A A77G; rule met

Assess whether reported self-cleavage for U46C A57G sits at 0.7 or higher.
rule met

Assess whether reported self-cleavage for U13C A140G sits at 0.7 or higher.
rule met

Assess whether reported self-cleavage for G21U A92G sits at 0.7 or higher.
rule not met

Assess whether reported self-cleavage for A42G U132C sits at 0.7 or higher.
rule met

Assess whether reported self-cleavage for C3U U87A sits at 0.7 or higher.
rule not met

Assess whether reported self-cleavage for A121G G125A sits at 0.7 or higher.
rule met

Assess whether reported self-cleavage for U13A U132C sits at 0.7 or higher.
rule met

Assess whether reported self-cleavage for A42U A43G sits at 0.7 or higher.
rule met

Assess whether reported self-cleavage for A43U U134C sits at 0.7 or higher.
rule met

Assess whether reported self-cleavage for A50U U115C sits at 0.7 or higher.
rule met

Assess whether reported self-cleavage for A31G G114A sits at 0.7 or higher.
rule met

Assess whether reported self-cleavage for U46C U62A sits at 0.7 or higher.
rule not met
